# Experiment description: Cytotoxicity against human HCT116 cells at 10 uM
# Assay type: cell-based
# Condition info: hct-116, 10 µM
Assay readout: Activity

Sample answers from the record:
{"Compound": "CSc1c(Cc2ccc(Cl)cc2)c(SC)n2ccncc12.Cl", "Activity": "Toxic"}
{"Compound": "CSc1c(SC)c2cnccn2c1SC.Cl", "Activity": "Non-toxic"}
{"Compound": "CCCc1c(SC)c2cnccn2c1SC.Cl", "Activity": "Non-toxic"}
{"Compound": "CSc1c(CCc2ccccc2)c(SC)n2ccncc12.Cl", "Activity": "Toxic"}

# get_value(readout='Activity', item= CSc1cc(SC)n2ccncc12.Cl )
Non-toxic

====

# Experiment description: Cytotoxicity against human HCT116 cells at 10 uM
# Assay type: cell-based
# Condition info: hct-116, 10 µM
Assay readout: Activity

{"Compound": "CSc1c(-c2ccccc2)c(SC)n2ccncc12.Cl", "Assay readout": "Activity", "Result": "Non-toxic"}
{"Compound": "CSc1c(C)c(SC)n2ccncc12.Cl", "Assay readout": "Activity", "Result": "Non-toxic"}
{"Compound": "CCc1c(SC)c2cnccn2c1SC.Cl", "Assay readout": "Activity", "Result": "Non-toxic"}
{"Compound": "CSc1c(Cc2ccccc2)c(SC)n2ccncc12.Cl", "Assay readout": "Activity", "Result": "Non-toxic"}

# get_value(readout='Activity', item= CSc1c(Cc2ccc(C)cc2)c(SC)n2ccncc12.Cl )
Toxic

# get_value(readout='Activity', item= CCCCc1c(SC)c2cnccn2c1SC.Cl )
Non-toxic

# get_value(readout='Activity', item= COc1ccc(Cc2c(SC)c3cnccn3c2SC)cc1.Cl )
Toxic

From: ChEMBL document CHEMBL3797139
